System: HL-60 cells
assay_explanation: Determination of IC50 values, cell death by MTS/PMS after 72 h
measurement_conditions: Homo sapiens, HL-60, read-out: HL-60
readout_type: pIC50
Units for pIC50: none; it is -log10 of a concentration expressed in mol/L.

Form field pIC50, entry O=C(NC1CCCc2ccccc21)C(c1ccccc1)(c1ccccc1)c1ccccc1 (stereo not shown) : 5.66

Form field pIC50, entry O=C(NC12CC3CC(CC(C3)C1)C2)C(c1ccccc1)(c1ccccc1)c1ccccc1 [drawing 78] : 6.07

Form field pIC50, entry O=C(NC1C2CC3CC(C2)CC1C3)C(c1ccccc1)(c1ccccc1)c1ccccc1 (stereo not shown) : 6.04

Form field pIC50, entry COc1ccc(CNC(=O)C(c2ccccc2)(c2ccccc2)c2ccccc2)cc1 : 4.98

Form field pIC50, entry COc1ccc(CNC(=O)CC(c2ccccc2)(c2ccccc2)c2ccccc2)c(OC)c1 : 5.65

Form field pIC50, entry O=C(CC(c1ccccc1)(c1ccccc1)c1ccccc1)NCCc1cccnc1 : 5.86

Form field pIC50, entry CC(=O)OC(CNC(=O)C(c1ccccc1)(c1ccccc1)c1ccccc1)c1ccccc1 (stereo not shown) : 4.79

---

System: MCF7
assay_explanation: NCI 60 cell line screen (SRB), Breast Cancer
Format: cell-based, human
measurement_conditions: MCF7; read-out: LC50 (the source's name)
readout_type: CC50

Response field CC50 (MCF7) for item COc1cccc(CCNC(=O)CC(c2ccccc2)(c2ccccc2)c2ccccc2)c1 [Compound Z3] : > 100 µM

---

Test system: UACC-62
assay_explanation: Death induction in melanoma cell line
Format: cell-based, human
measurement_conditions: Homo sapiens; Table 13, UACC-62 melanoma; read-out: UACC-62
Experimental: Given the interesting and somewhat unusual trait of G1 arrest, compounds x and y were tested for their ability to induce death in two melanoma cell lines: UACC-62 (human), and B16-F10 (mouse). […] Compounds x and y were also submitted for testing in the NCl 60-cell line assay. […] The triphenylamides (TPAs) induce apoptosis in these melanoma cell lines.
Provide the recorded pIC50 for the entries that follow.
Units for pIC50: none; it is -log10 of a concentration expressed in mol/L.

Form field pIC50, entry O=C(NC1C2CC3CC(C2)CC1C3)C(c1ccccc1)(c1ccccc1)c1ccccc1 (stereo not drawn) : 4.82

Form field pIC50, entry CC(=O)OC(CNC(=O)C(c1ccccc1)(c1ccccc1)c1ccccc1)c1ccccc1 (stereo not drawn) : 6.21

Form field pIC50, entry COc1ccc(CNC(=O)CC(c2ccccc2)(c2ccccc2)c2ccccc2)c(OC)c1 : 6.28

Form field pIC50, entry COc1ccc(CNC(=O)C(c2ccccc2)(c2ccccc2)c2ccccc2)cc1 : 6.16

Form field pIC50, entry O=C(NC1CCCc2ccccc21)C(c1ccccc1)(c1ccccc1)c1ccccc1 (stereo not drawn) : 5.75

Form field pIC50, entry O=C(CC(c1ccccc1)(c1ccccc1)c1ccccc1)NCCc1cccnc1 : 6.15

Form field pIC50, entry O=C(NC12CC3CC(CC(C3)C1)C2)C(c1ccccc1)(c1ccccc1)c1ccccc1 [drawing 78] : 5.62

---

System: HOP-62
assay_explanation: NCI 60 cell line screen (SRB), Non-Small Cell Lung Cancer
Type: cell-based, human
measurement_conditions: HOP-62; read-out: LC50 (the source's name)
readout_type: CC50

Form field CC50, entry COc1cccc(CCNC(=O)CC(c2ccccc2)(c2ccccc2)c2ccccc2)c1 : > 100 µM

---

Tested on: B16-F10
assay_explanation: Death induction in melanoma cell line
Format: cell-based, mouse
measurement_conditions: Mus musculus, B16-F10; Table 13, B16F10 melanoma; read-out: B16F10
Method: Given the interesting and somewhat unusual trait of G1 arrest, compounds x and y were tested for their ability to induce death in two melanoma cell lines: UACC-62 (human), and B16-F10 (mouse). […] Compounds x and y were also submitted for testing in the NCl 60-cell line assay. […] The triphenylamides (TPAs) induce apoptosis in these melanoma cell lines.
Mark T only when IC50 stays strictly below 0.8 µM. Values equal to the cut-off are F.

Query :: Strictly below 0.8 µM in IC50? O=C(CC(c1ccccc1)(c1ccccc1)c1ccccc1)NCCc1cccnc1
Result :: F

Query :: Strictly below 0.8 µM in IC50? COc1ccc(CNC(=O)C(c2ccccc2)(c2ccccc2)c2ccccc2)cc1
Result :: T

Query :: Strictly below 0.8 µM in IC50? COc1cc([C@@H]2c3cc4c(cc3[C@@H](O[C@@H]3O[C@@H]5CO[C@@H](C)O[C@H]5[C@H](O)[C@H]3O)[C@H]3COC(=O)[C@H]23)OCO4)cc(OC)c1O [Etoposide]
Result :: F

Query :: Strictly below 0.8 µM in IC50? O=C(NC12CC3CC(CC(C3)C1)C2)C(c1ccccc1)(c1ccccc1)c1ccccc1 [drawing 78]
Result :: F

Query :: Strictly below 0.8 µM in IC50? COc1ccc(CNC(=O)CC(c2ccccc2)(c2ccccc2)c2ccccc2)c(OC)c1
Result :: T

Query :: Strictly below 0.8 µM in IC50? O=C(NC1C2CC3CC(C2)CC1C3)C(c1ccccc1)(c1ccccc1)c1ccccc1 (stereo not drawn)
Result :: F

Query :: Strictly below 0.8 µM in IC50? O=C(NC1CCCc2ccccc21)C(c1ccccc1)(c1ccccc1)c1ccccc1 (stereo not drawn)
Result :: F

Query :: Strictly below 0.8 µM in IC50? C[C@]12C=CC(=O)C=C1CC[C@@H]1[C@@H]2C(=O)C[C@@]2(C)[C@H]1CC[C@]2(O)C(=O)CO
Result :: F

---

Tested on: NCI-H460
assay_explanation: NCI 60 cell line screen (SRB), Non-Small Cell Lung Cancer
Type: cell-based, human
measurement_conditions: NCI-H460; read-out: LC50 (the source's name)
Experimental: The operation of this screen utilizes 60 different human tumor cell lines, representing leukemia, melanoma and cancers of the lung, colon, brain, ovary, breast, prostate, and kidney. […] Following drug addition, the plates are incubated for an additional 48 h at 37° C., 5% CO2, 95% air, and 100% relative humidity. […] Bound stain is subsequently solubilized with 10 mM trizma base, and the absorbance is read on an automated plate reader at a wavelength of 515 nm. […]
readout_type: CC50

Form field CC50, entry COc1cccc(CCNC(=O)CC(c2ccccc2)(c2ccccc2)c2ccccc2)c1 : > 100 µM

---

System: UACC-62
assay_explanation: Death induction in melanoma cell line
Assay type: cell-based, human
measurement_conditions: Homo sapiens, UACC-62, read-out: UACC-62
readout_type: IC50

Form field IC50, entry O=P1(N(CCCl)CCCl)NCCCO1 (stereo not shown) [Cyclophosphamide] : > 100 µM
